Reported normalized growth values for a set of compounds
method-notes: chemical genetic growth profiling, strain panel (AID 1159580);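 further: tested at 20 µM; growth read once vehicle control cultures reached saturation at 30 °C; 1 = growth at the plate median or of vehicle wells; lower values mean less growth of the strain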
condition-parameters: S. cerevisiae deletion strains, growth OD, locus YMR231W, strain pep5, stronger effect = lower value
Among all 5,500 compounds or so, about 2,000 (36%) were called active. Not shown: some 18% with an inconclusive outcome. The list shows a part of the results.
measured-quantity: normalized growth

1) O=C(O)CCC(=O)c1ccc(-c2ccccc2)cc1 :: 0.972
2) CO[C@@H]1[C@@H](O[C@@H]2O[C@H](C)[C@@H](O[C@H]3C[C@@](C)(O)[C@H](O)[C@H](C)O3)[C@H](N(C)C)[C@H]2O)[C@@H](CC=O)C[C@@H](C)[C@@H](O[C@H]2CC[C@H](N(C)C)[C@@H](C)O2)/C=C/C=C/C[C@H](C)OC(=O)C[C@H]1O :: 1
3) COc1ccc(/C=C/c2cc(O)cc(O)c2)cc1 :: 0.992
4) CCn1cc(C(=O)O)c(=O)c2cnc(N3CCNCC3)nc21 :: 1.01
5) COc1ccc(/C=C/C(=O)c2cc(O)ccc2O)cc1 :: 0.522
6) CCn1cc(C(=O)O)c(=O)c2cc3c(cc21)OCO3 :: 0.978
7) COc1ccc(/C=C/C(=O)O)cc1OC :: 0.965
8) C#C[C@]1(O)CCC2C3CCc4cc(OC)ccc4C3CC[C@@]21C (stereo partly specified) :: 0.993
9) COc1ccc(-c2cc(C(F)F)nn2-c2ccc(S(N)(=O)=O)cc2)cc1F :: 1
10) COc1ccc(CN(CCN(C)C)c2ncccn2)cc1 :: 1.02
11) CCCCC(CC)CN=C(N)NC(N)=NCCCCCCN=C(N)NC(N)=NCC(CC)CCCC (stereo unspecified) :: 0.0657
12) COc1cc(/C=C/C(=O)O)ccc1O :: 1.01
13) COc1ccc(/C=C/C(=O)c2ccc(O)cc2O)cc1 :: 0.462
14) O=C(/C=C/c1ccc(O)c(O)c1)O[C@@H]1C[C@](O)(C(=O)O)C[C@@H](O)[C@H]1O :: 0.971
15) C[C@H](COc1ccccc1)N[C@H](C)[C@H](O)c1ccc(O)cc1 :: 1
16) C[C@@H]1C[C@@H]([C@H](O)CC2CC(=O)NC(=O)C2)C(=O)[C@@H](C)C1 :: 0.0689
17) CCn1cc(C(=O)O)c(=O)c2ccc(C)nc21 :: 0.891
18) C=CC1=C(C)/C(=C/c2[nH]c(Cc3[nH]c(/C=C4\NC(=O)C(C)=C4C=C)c(C)c3CCC(=O)O)c(CCC(=O)O)c2C)NC1=O :: 0.99
19) CC[C@]12CCCN3CCc4c(n(c5ccccc45)[C@](O)(C(=O)OC)C1)[C@@H]32 :: 0.982
20) CC[C@]12CCCN3CCc4c(n(c5ccccc45)C(=O)C1)[C@@H]32 :: 0.997
21) CC1(C)O[C@@H]2[C@@H](CO[C@@]3(COS(N)(=O)=O)OC(C)(C)O[C@@H]23)O1 :: 1
22) O=C1O[C@@H](CO)[C@H](O)[C@@H](O)[C@@H]1O :: 1.02
23) O=C(NC(=O)c1c(F)cccc1F)Nc1cc(Cl)c(OC(F)(F)C(F)C(F)(F)F)cc1Cl (stereo unspecified) :: 1
24) O=C(O)P(=O)(O)O :: 0.993
25) COc1ccc(C=CC(=O)c2ccc(O)cc2O)cc1OC :: 0.996
26) CCOc1ccc2c(c1)C(C)=CC(C)(C)N2 :: 0.963
